Tested on: MDA-MB-435
Assay: NCI tumour cell line growth inhibition, 48 h
property measured: TGI

[[record]]
compound = "COC(=O)c1ccc2[nH]c3c(c2c1)CC(=O)Nc1ccccc1-3"
reported = "> 100 µM"

[[record]]
compound = "N#Cc1ccc(/C=C2\\Cc3ccccc3C2=O)cc1"
reported = "> 100 µM"

[[record]]
compound = "C#Cc1cccc(NC(=O)Nc2cccc(NC(=O)CCl)c2)c1"
reported = "> 82.5 µM"

[[record]]
compound = "NC(=O)NOCC1NC(=O)NC1=O (stereo unspecified)"
reported = "> 100 µM"

[[record]]
compound = "C/C=C\\C(C)=C/C(C)C(=O)CC(O)CC1CC(=O)NC(=O)C1 (stereo unspecified)"
reported = "> 100 µM"

[[record]]
compound = "CN1CCN(c2nc3c(c(=O)n(C)c(=O)n3C)n2C)CC1"
reported = "> 100 µM"

[[record]]
compound = "Cc1nn(-c2ccccc2)c2ncc3c(c12)C(=O)N(Cc1ccccc1)C3=O"
reported = "> 100 µM"

[[record]]
compound = "O=C(c1ccccc1)c1cc(-c2ccccc2)c(-c2ccccc2)[nH]c(=O)c1=O"
reported = "> 100 µM"

[[record]]
compound = "Oc1ccc(-c2nc(-c3ccc4oc5ccc(-c6[nH]c(-c7ccc(O)cc7)nc6-c6ccccc6)cc5c4c3)c(-c3ccccc3)[nH]2)cc1"
reported = "> 100 µM"

[[record]]
compound = "C[Si](C)(C)C1=C2C(=O)c3ccccc3C(=O)C2=C([Si](C)(C)C)[C@@H]2CCCC[C@H]12"
reported = "> 100 µM"

[[record]]
compound = "Cc1[nH]c(=O)nc2c1C(=O)N(C(C)C)C(NC(C)C)S2 (stereo unspecified)"
reported = "> 100 µM"

[[record]]
compound = "CCCC1C2=C(C(=O)OC2=O)C2C(CC)CC3=C(C(=O)OC3=O)C12 (stereo unspecified)"
reported = "> 100 µM"

[[record]]
compound = "CN(C)CCCN1c2ccc3ccccc3c2Sc2cccc(Cl)c21"
reported = "3.88 µM"

[[record]]
compound = "Nc1cc(N)c2nc(-c3ccccc3)c(Sc3ccc(F)cc3)nc2c1"
reported = "32.9 µM"

[[record]]
compound = "COc1cc(C=Nc2ccc(Oc3ccc(Cl)cc3)c(Cl)c2)cc(OC)c1OC"
reported = "> 100 µM"

[[record]]
compound = "COC(=O)[C@@H](C)C[C@H](Cc1ccccc1)NC(=O)c1cccc([C@@H](C[C@H](C(C)C)N(C)C(=O)[C@@H](NC(=O)[C@H]2CCCCN2C)C(C)C)OC(C)=O)n1"
reported = "0.0881 µM"

